# System Tested: Bovine trypsin (Bos taurus)
# Construct: purchased Sigma-Aldrich T1426
# Test Name: Biochemical Assay of Trypsin (T), H-D-CHA-AR-AMC substrate
# Conditions Used: compound 0.1 μM, 15 μM substrate, 0.025 nM Trypsin
Listed below: inhibition at 0.1 µM values for each entry.

>  <Compound>
N=C(N)Nc1ccc(C(=O)Oc2ccc(CC(=O)NCC(=O)O)n3ncnc23)cc1

>  <inhibition at 0.1 µM / %>
99.7

$$$$
>  <Compound>
C/C(=N\O)Nc1ccc(C(=O)Oc2ccc(CC(=O)O)n3ncnc23)cc1

>  <inhibition at 0.1 µM / %>
-8

$$$$
>  <Compound>
CNC(=N)Nc1ccc(C(=O)Oc2ccc(CC(=O)O)n3ncnc23)cc1

>  <inhibition at 0.1 µM / %>
9.6

$$$$
>  <Compound>
N=C(N)Nc1ncc(C(=O)Oc2ccc(CC(=O)NC(CC(=O)O)C(=O)O)n3ccnc23)cn1 (stereo not shown)

>  <inhibition at 0.1 µM / %>
95.7

$$$$
>  <Compound>
N=C(N)Nc1ccc(C(=O)Oc2cc(CC(=O)O)cn3ncnc23)cc1

>  <inhibition at 0.1 µM / %>
81.7

$$$$
>  <Compound>
N=C(N)Nc1ccc(C(=O)Oc2ccc(CC(=O)NC(CC(=O)O)C(=O)O)n3ccnc23)cc1 (stereo not shown)

>  <inhibition at 0.1 µM / %>
99.3

$$$$
>  <Compound>
CNC(=N)c1ccc(C(=O)Oc2ccc(CC(=O)O)n3ncnc23)cc1

>  <inhibition at 0.1 µM / %>
5.7

$$$$
>  <Compound>
CONC(=N)c1ccc(C(=O)Oc2ccc(CC(=O)O)n3ncnc23)cc1

>  <inhibition at 0.1 µM / %>
-3.1

$$$$
>  <Compound>
N=C(N)Nc1ccc(C(=O)Oc2ccc(CC(=O)O)n3ncnc23)c(Cl)c1

>  <inhibition at 0.1 µM / %>
43.5

$$$$
>  <Compound>
N=C(N)Nc1ccc(C(=O)Oc2ccc(CC(=O)O)n3ncnc23)c2ccoc12

>  <inhibition at 0.1 µM / %>
14.6

$$$$
>  <Compound>
N=C(N)Nc1ccc(C(=O)Oc2ccc(C3OC(=O)NC3=O)n3ncnc23)cc1 (stereo not shown)

>  <inhibition at 0.1 µM / %>
99.8

$$$$
>  <Compound>
N=C(N)Nc1ccc(C(=O)Oc2ccc(CC(=O)O)n3ncnc23)c(F)c1

>  <inhibition at 0.1 µM / %>
97.1

$$$$
>  <Compound>
CC(=N)Nc1ccc(C(=O)Oc2ccc(CC(=O)O)n3ncnc23)cc1

>  <inhibition at 0.1 µM / %>
11.5

$$$$
>  <Compound>
N=C(N)Nc1ccc(C(=O)Oc2ccc(CC(=O)O)n3ncnc23)s1

>  <inhibition at 0.1 µM / %>
93.8

$$$$
>  <Compound>
N=C(N)Nc1ccc(C(=O)Oc2ccc(CCC(=O)O)n3ccnc23)cc1

>  <inhibition at 0.1 µM / %>
61

$$$$
>  <Compound>
N=C(N)Nc1ccc(C(=O)Oc2ccc(CCC(=O)O)n3ncnc23)cc1

>  <inhibition at 0.1 µM / %>
99.8

$$$$
>  <Compound>
N=C(N)Nc1ccc(C(=O)Oc2ccc(CC(=O)NC(CC(=O)O)C(=O)O)n3ncnc23)cc1 (stereo not shown)

>  <inhibition at 0.1 µM / %>
98.3

$$$$
>  <Compound>
CN(C(=N)N)c1ccc(C(=O)Oc2ccc(CC(=O)O)n3ncnc23)cc1

>  <inhibition at 0.1 µM / %>
31.4

$$$$
>  <Compound>
COc1cc(C(=O)Oc2ccc(CC(=O)O)n3ncnc23)ccc1NC(=N)N

>  <inhibition at 0.1 µM / %>
13.8

$$$$
>  <Compound>
Cc1cc(NC(=N)N)ccc1C(=O)Oc1ccc(CC(=O)O)n2ncnc12

>  <inhibition at 0.1 µM / %>
9.5

$$$$
>  <Compound>
N=C(N)Nc1ccc(C(=O)Oc2ccc(CC(=O)N(CC(=O)O)CC(=O)O)n3ncnc23)cc1

>  <inhibition at 0.1 µM / %>
89.6

$$$$
>  <Compound>
N=C(N)Nc1ccc(C(=O)Oc2ccc(CC(=O)O)n3ncnc23)cc1Cl

>  <inhibition at 0.1 µM / %>
6.3

$$$$
>  <Compound>
N#CNC(=N)c1ccc(C(=O)Oc2ccc(CC(=O)O)n3ncnc23)cc1

>  <inhibition at 0.1 µM / %>
-2.1

$$$$
>  <Compound>
N=C(N)Nc1ccc(C(=O)Oc2cc(CCC(=O)O)cn3ncnc23)cc1

>  <inhibition at 0.1 µM / %>
99.2

$$$$
>  <Compound>
N=C(N)Nc1ncc(C(=O)Oc2ccc(CC(=O)O)n3ccnc23)cn1

>  <inhibition at 0.1 µM / %>
95.8

$$$$

###

# System Tested: Recombinant full-length human EP (Enteropeptidase) (Homo sapiens, UniProt P98073)
# Construct: Recombinant full-length human EP (PeproTech, Cat #450-48C); purchased PeproTech 450-48C
# Sequence (P98073 whole entry): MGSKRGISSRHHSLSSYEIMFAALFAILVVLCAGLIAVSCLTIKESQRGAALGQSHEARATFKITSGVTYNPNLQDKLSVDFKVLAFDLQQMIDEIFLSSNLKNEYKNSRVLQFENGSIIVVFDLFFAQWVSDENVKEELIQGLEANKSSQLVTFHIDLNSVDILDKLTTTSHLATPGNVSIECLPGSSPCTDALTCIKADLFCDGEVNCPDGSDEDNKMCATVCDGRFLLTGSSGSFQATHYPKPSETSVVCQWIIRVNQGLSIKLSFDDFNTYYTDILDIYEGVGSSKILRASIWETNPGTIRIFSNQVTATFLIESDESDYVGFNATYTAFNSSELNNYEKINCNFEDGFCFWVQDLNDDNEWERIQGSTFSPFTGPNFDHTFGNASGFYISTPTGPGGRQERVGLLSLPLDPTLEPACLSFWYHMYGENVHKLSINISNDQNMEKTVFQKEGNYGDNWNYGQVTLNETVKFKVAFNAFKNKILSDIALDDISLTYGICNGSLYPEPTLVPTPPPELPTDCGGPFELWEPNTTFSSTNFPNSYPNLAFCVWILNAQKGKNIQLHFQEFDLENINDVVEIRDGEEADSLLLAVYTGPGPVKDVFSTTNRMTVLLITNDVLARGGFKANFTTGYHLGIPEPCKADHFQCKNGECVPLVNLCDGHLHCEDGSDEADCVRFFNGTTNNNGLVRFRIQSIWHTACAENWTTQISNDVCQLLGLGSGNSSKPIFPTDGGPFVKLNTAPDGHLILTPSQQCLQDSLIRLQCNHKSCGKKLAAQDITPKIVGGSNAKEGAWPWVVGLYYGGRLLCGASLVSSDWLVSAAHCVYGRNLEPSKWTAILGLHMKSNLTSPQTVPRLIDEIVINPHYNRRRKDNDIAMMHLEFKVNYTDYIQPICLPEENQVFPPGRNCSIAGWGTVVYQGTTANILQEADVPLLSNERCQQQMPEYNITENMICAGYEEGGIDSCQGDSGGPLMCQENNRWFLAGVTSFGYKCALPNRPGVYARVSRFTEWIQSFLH
# Test Name: In vitro inhibition potencies against Enteropeptidase (EP), fluorescent peptide GDDDDK-naphthylamine substrate
# Type: biochemical
# Conditions Used: compound 10 μM, 300 μM substrate, 1.25 nM EP
Measured Metric: inhibition at 10 µM (%)

>  <Compound>
N#Cc1cc(C(=O)Oc2ccc(CC(=O)O)n3ncnc23)ccc1NC(=N)N [Compound 22]

>  <Assay Value>
32.1

$$$$
>  <Compound>
N=C(N)Nc1ncc(C(=O)Oc2ccc(CC(=O)NC(CC(=O)O)C(=O)O)n3ccnc23)cn1 (centres unmarked) [Compound 31]

>  <Assay Value>
99.8

$$$$
>  <Compound>
C#CCOCCOCC#Cc1cc(NC(=N)N)ccc1C(=O)Oc1ccc(CC(=O)O)n2ncnc12 [Compound 42]

>  <Assay Value>
99.8

$$$$
>  <Compound>
N=C(N)Nc1ncc(C(=O)Oc2ccc(CC(=O)NC(CC(=O)O)C(=O)O)n3ncnc23)cn1 (centres unmarked) [Compound 28]

>  <Assay Value>
99.9

$$$$
>  <Compound>
N=C(N)Nc1ccc(C(=O)Oc2cc(CC(=O)O)cn3ncnc23)cc1 [Compound 26]

>  <Assay Value>
101

$$$$
>  <Compound>
N=C(N)Nc1ccc(C(=O)Oc2ccc(CC(=O)O)n3ncnc23)s1 [Compound 10]

>  <Assay Value>
100

$$$$
>  <Compound>
Cc1cc(NC(=N)N)ccc1C(=O)Oc1ccc(CC(=O)O)n2ncnc12 [Compound 19]

>  <Assay Value>
101

$$$$
>  <Compound>
N=C(N)Nc1ccc(C(=O)Oc2ccc(Cc3nn[nH]n3)n3ncnc23)cc1 [Compound 11]

>  <Assay Value>
100

$$$$

###

# System Tested: Bovine trypsin (Bos taurus, UniProt P00760)
# Construct: purchased Sigma-Aldrich T1426
# Sequence (P00760 24-246): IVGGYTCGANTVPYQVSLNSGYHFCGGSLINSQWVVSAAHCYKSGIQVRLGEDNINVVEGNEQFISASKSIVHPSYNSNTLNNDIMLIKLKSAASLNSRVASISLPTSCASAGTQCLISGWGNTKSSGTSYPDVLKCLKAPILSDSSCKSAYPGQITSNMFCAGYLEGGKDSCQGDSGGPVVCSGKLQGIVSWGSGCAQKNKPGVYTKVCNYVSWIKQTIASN
# Test Name: Biochemical Assay of Trypsin (T), H-D-CHA-AR-AMC substrate
# Conditions Used: compound 0.1 μM, 15 μM substrate, 0.025 nM Trypsin
# Description: Bovine trypsin was purchased from Sigma-Aldrich (Cat No. T1426), and 7-amino-4-methylcoumarin (AMC) conjugated peptide H-D-cyclohexylalanine (D-CHA)-AR-AMC was used as the substrate in the assay. The protease activity of trypsin was followed by measuring AMC production by the emission fluorescence intensity of AMC at 460 nm with the excitation at 375 nm, in the same assay buffer as used in the EP assay. […]
Listed below: inhibition at 0.1 µM values for each entry.

>  <Molecule>
N=C(NN)c1ccc(C(=O)Oc2ccc(CC(=O)O)n3ncnc23)cc1

>  <System Tested>
Bovine trypsin (Bos taurus, UniProt P00760)

>  <inhibition at 0.1 µM [%]>
1.6

$$$$
>  <Molecule>
N=C(N)Nc1ccc(C(=O)Oc2ccc(CC(=O)O)n3ncnc23)cc1O

>  <System Tested>
Bovine trypsin (Bos taurus, UniProt P00760)

>  <inhibition at 0.1 µM [%]>
12.4

$$$$
>  <Molecule>
CS(=O)(=O)NC(=O)Cc1ccc(OC(=O)c2cnc(NC(=N)N)nc2)c2ncnn12

>  <System Tested>
Bovine trypsin (Bos taurus, UniProt P00760)

>  <inhibition at 0.1 µM [%]>
96.5

$$$$
>  <Molecule>
N=C(N)Nc1ccc(C(=O)Oc2ccc(CC(=O)O)n3ncnc23)c(C(F)(F)F)c1

>  <System Tested>
Bovine trypsin (Bos taurus, UniProt P00760)

>  <inhibition at 0.1 µM [%]>
2.3

$$$$
>  <Molecule>
N=C(N)Nc1ccc(C(=O)Oc2ccc(CC(=O)NC(CCC(=O)O)(CCC(=O)O)CCC(=O)O)n3ncnc23)cc1

>  <System Tested>
Bovine trypsin (Bos taurus, UniProt P00760)

>  <inhibition at 0.1 µM [%]>
94.1

$$$$
>  <Molecule>
N=C(N)Nc1ncc(C(=O)Oc2ccc(CC(=O)NC(CC(=O)O)C(=O)O)n3ncnc23)cn1 (centres unmarked)

>  <System Tested>
Bovine trypsin (Bos taurus, UniProt P00760)

>  <inhibition at 0.1 µM [%]>
97.8

$$$$
>  <Molecule>
N=C(N)Nc1ccc(C(=O)Oc2ccc(CC(=O)O)n3ncnc23)cc1

>  <System Tested>
Bovine trypsin (Bos taurus, UniProt P00760)

>  <inhibition at 0.1 µM [%]>
97.2

$$$$
>  <Molecule>
C#CCOCCOCC#Cc1cc(NC(=N)N)ccc1C(=O)Oc1ccc(CC(=O)O)n2ncnc12

>  <System Tested>
Bovine trypsin (Bos taurus, UniProt P00760)

>  <inhibition at 0.1 µM [%]>
52.9

$$$$
